molecular target: SP receptor (Rattus norvegicus); construct: from tissue; host or cells: rat submaxillary gland (crude tissue suspension); assay: 3H-SP binding test, rat submaxillary gland tissue; conditions: 30 μM test compound; rat submaxillary gland tissue (Examples 1-34); read-out: 3H-SP Binding % Inhibition
Sequence (P14600 whole entry): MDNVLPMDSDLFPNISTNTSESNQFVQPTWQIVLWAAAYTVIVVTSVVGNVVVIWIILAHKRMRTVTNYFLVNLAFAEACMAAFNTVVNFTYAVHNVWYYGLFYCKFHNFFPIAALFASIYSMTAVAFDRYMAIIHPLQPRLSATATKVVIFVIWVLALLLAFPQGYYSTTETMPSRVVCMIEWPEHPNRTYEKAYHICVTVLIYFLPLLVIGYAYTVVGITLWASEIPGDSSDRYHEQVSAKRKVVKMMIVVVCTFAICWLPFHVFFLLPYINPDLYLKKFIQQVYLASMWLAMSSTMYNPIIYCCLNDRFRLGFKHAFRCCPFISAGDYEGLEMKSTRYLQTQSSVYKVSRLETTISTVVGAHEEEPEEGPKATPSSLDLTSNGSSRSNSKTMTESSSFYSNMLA
Non-standard residues stand in square brackets, D forms with d. Residues, ends and D or L forms follow the SMILES beside them. NMeF = CN[C@@H](Cc1ccccc1)C(=O)O; 4Pal = N[C@@H](Cc1ccncc1)C(=O)O; d4Pal = N[C@H](Cc1ccncc1)C(=O)O; Dap = NC[C@H](N)C(=O)O; Sar = CNCC(=O)O
quantity kind: inhibition at 30 µM (%)
Response body: numeric value in %, unit text excluded.

Recorded inhibition at 30 µM, per entry:
compound="CSCC[C@H](NC(=O)[C@H](CC(C)C)NC(=O)[C@@H](C)NC(=O)[C@H](Cc1ccccc1)NC(=O)[C@H](Cc1ccccc1)NC(=O)[C@@H]1CCCN1)C(N)=O [Example 1, HPro-Phe-Phe-DAla-Leu-MetNH2] (H-PFF[dA]LM-NH2)" target_under_test="SP receptor (Rattus norvegicus)" endpoint_value=17
compound="CSCC[C@H](NC(=O)[C@H](CC(C)C)NC(=O)[C@H](Cc1ccncc1)NC(=O)[C@H](Cc1ccccc1)NC(=O)[C@H](Cc1ccccc1)NC(=O)[C@@H]1CCCN1)C(N)=O [Example 19] (H-PFF[4Pal]LM-NH2)" target_under_test="SP receptor (Rattus norvegicus)" endpoint_value=42
compound="CSCC[C@H](NC(=O)[C@H](CC(C)C)NC(=O)[C@@H](CCCNC(=N)N)NC(=O)[C@H](Cc1ccccc1)NC(=O)[C@@H](Cc1c[nH]c2ccccc12)NC(=O)[C@@H]1CCCN1)C(N)=O [Example 34, HPro-DTrp-Phe-DArg-Leu-MetNH2] (H-P[dW]F[dR]LM-NH2)" target_under_test="SP receptor (Rattus norvegicus)" endpoint_value=20
compound="CSCC[C@H](NC(=O)[C@H](CC(C)C)NC(=O)CN(C)C(=O)[C@H](Cc1ccccc1)N(C)C(=O)[C@H](Cc1ccccc1)NC(=O)[C@@H]1CCCN1)C(N)=O [Example 11, HPro-Phe-MePhe-Sar-Leu-MetNH2] (H-PF[NMeF][Sar]LM-NH2)" target_under_test="SP receptor (Rattus norvegicus)" endpoint_value=11
compound="CSCC[C@H](NC(=O)[C@H](CC(C)C)NC(=O)[C@@H](Cc1ccncc1)NC(=O)[C@H](Cc1ccccc1)NC(=O)[C@H](Cc1ccccc1)NC(=O)[C@@H]1CCCN1)C(N)=O [Example 20] (H-PFF[d4Pal]LM-NH2)" target_under_test="SP receptor (Rattus norvegicus)" endpoint_value=20
compound="CSCC[C@@H](NC(=O)[C@H](CC(C)C)NC(=O)CNC(=O)[C@H](Cc1ccccc1)NC(=O)[C@H](Cc1ccccc1)NC(=O)[C@@H]1CCCN1)C(N)=O [Example 6, HPro-Phe-Phe-Gly-Leu-DMetNH2] (H-PFFGL[dM]-NH2)" target_under_test="SP receptor (Rattus norvegicus)" endpoint_value=8
compound="CSCC[C@H](NC(=O)[C@H](CC(C)C)NC(=O)[C@@H](CCCCN)NC(=O)[C@H](Cc1ccccc1)NC(=O)[C@@H](Cc1c[nH]c2ccccc12)NC(=O)[C@@H]1CCCN1)C(N)=O [Example 33, HPro-DTrp-Phe-DLys-Leu-MetNH2] (H-P[dW]F[dK]LM-NH2)" target_under_test="SP receptor (Rattus norvegicus)" endpoint_value=15

Field request: inhibition at 30 µM | item: CSCC[C@H](NC(=O)[C@H](CC(C)C)NC(=O)[C@H](CN)NC(=O)[C@H](Cc1ccccc1)NC(=O)[C@H](Cc1ccccc1)NC(=O)[C@@H]1CCCN1)C(N)=O [Example 13, HPro-Phe-Phe-LDap-Leu-MetNH2] (H-PFF[Dap]LM-NH2)
15
